assay: chemical genetic growth profiling, strain panel (AID 1159580);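 note: tested at 20 µM; growth read once vehicle control cultures reached saturation at 30 °C; 1 = growth at the plate median or of vehicle wells; lower values mean less growth of the strain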; conditions: S. cerevisiae deletion strains, growth OD, locus YMR129W, active compounds read low
Hit rate of the full screen: of about 5,500 compounds, about 2,000 (36%) were called active. Not shown: some 18% with an inconclusive outcome. The list shows a part of the results.
property: normalized growth

> print(dat)
                                   compound           property  recorded.result
1  CC12CCCC(O)(C1)C1CC(C)(C)C1CC2 (stereo not given)  normalized growth             1.01
2  C[C@@H]1CC2C3CCC4=CC(=O)C=C[C@]4(C)[C@@]3(F)[C@@H](O)C[C@]2(C)[C@@]1(O)C(=O)COP(=O)(O)O (stereo not given in full)  normalized growth            0.987
3  c1ccc(-c2ccc(C(c3ccccc3)n3ccnc3)cc2)cc1 (stereo not given)  normalized growth           0.0621
4  CC1(C)CC2C1CCC1(C)OC2(C)CCC1O (stereo not given)  normalized growth             1.01
5  O=C(NC(Cc1cc(=O)[nH]c2ccccc12)C(=O)O)c1ccc(Cl)cc1 (stereo not given)  normalized growth            0.983
